These entries and their values trace back to patent US12612410B2.

ASSAYED_SYSTEM: FLT3 D835V (Homo sapiens, UniProt P36888, D835V)
PROCEDURE_TEXT: DiscoverX KINOMEscan competition binding, FLT3 D835V
RECORDED_METRIC: Kd (nM)

FC(F)(F)COc1cn2c(-c3cccc(N[C@@H]4CCNC4)n3)cnc2cn1	0.12

I: FC(F)c1cn2c(-c3cccc(N[C@H]4CNCC[C@@H]4F)n3)cnc2cn1
II: CC1(c2cn3c(-c4cccc(N[C@H]5CNCC56CC6)n4)cnc3cn2)CC1
Choose between I and II : whose measured Kd value is numerically larger? The response must carry the label of the picked entry.
I
(I: 0.036 nM, II: 0.013 nM)
